readout_label: melting point (°C)
Numbers only here, please. The scale is °C.

Recorded results for 2 molecules are shown here.
{"smiles": "CN(C)C(=O)C(CCN1CCC(O)(c2cccc(O)c2)CC1)(c1ccccc1)c1ccccc1", "melting point [°C]": 169}
{"smiles": "CN(C)C(=O)C(CCN1CCC(O)(c2ccccc2OCCCCCCO)CC1)(c1ccccc1)c1ccccc1.Cl", "melting point [°C]": 110}

Kindly consider the entry below.
Looking up CN(C)C(=O)C(CCN1CCC(O)(c2ccc(O)cc2)CC1)(c1ccccc1)c1ccccc1 , I found its melting point recorded as 155
